# System: Human Rheumatoid Synovial collagenase (Homo sapiens, UniProt P03956)
# Construct: Synovial collagenase
# Sequence (P03956 100-469): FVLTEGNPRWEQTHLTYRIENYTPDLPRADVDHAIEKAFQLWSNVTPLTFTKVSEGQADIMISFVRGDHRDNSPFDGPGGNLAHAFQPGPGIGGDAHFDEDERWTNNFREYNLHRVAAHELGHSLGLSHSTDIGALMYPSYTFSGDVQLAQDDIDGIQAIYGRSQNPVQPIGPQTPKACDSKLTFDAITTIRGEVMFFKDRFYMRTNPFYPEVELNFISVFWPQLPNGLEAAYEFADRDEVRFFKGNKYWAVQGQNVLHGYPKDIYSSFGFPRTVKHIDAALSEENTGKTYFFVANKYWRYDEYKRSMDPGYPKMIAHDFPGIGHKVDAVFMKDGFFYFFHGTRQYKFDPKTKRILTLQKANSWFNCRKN
# Assay remarks: Inhibition of collagenase: acetyl 14C collagen degradation (Cawston and Barrett), concentration effecting 50% inhibition
# Condition parameters: Table 3; comparison R1 = H vs CH3; 37° C., 16 hours, pH 7.6; read-out: IC50 against human rheumatoid sinovial [collagenase]
Assay endpoint: pIC50
Note on pIC50: it is the negative log10 of concentration, concentration in mol/L.

Give its pIC50 value. Item: CNC(=O)[C@@H](NC(=O)C(CC(C)C)C(C)S)[C@@H](C)OCc1ccccc1 (stereo partly shown) 6.35
